Known pEC50 of a selection of molecules
Biological target: Full-length glucokinase (beta cell isoform) (Homo sapiens)
Construct: Full-length glucokinase (beta cell isoform) was His-tagged at N-terminus; His tag (N); made in house
Experiment: Glucokinase biochemical assay (PK/LDH-coupled, NADH depletion at 340 nm): % activation, EC50, % max activation
Details: 5 mM glucose; GK activation; read-out: EC50
pEC50: −log10 of the molar value.
QUANTITY_KIND: pEC50

smi=Cc1cc2c(Oc3ccc(S(C)(=O)=O)cc3)cc(C(=O)Nc3ccn(C)n3)cc2s1 quantity_kind=pEC50 measurement=6.21
smi=COc1ccnc(NC(=O)c2cc(Oc3ccc(S(=O)(=O)N4CCC4)cc3)c3cc(C)oc3c2)c1 quantity_kind=pEC50 measurement=6.44
smi=Cn1ccc(NC(=O)c2cc(Oc3ccc(C#N)c(F)c3)c3c(c2)OC(C)(C)C3)n1 quantity_kind=pEC50 measurement=5.72
smi=Cc1cc2c(Oc3ccc(S(C)(=O)=O)cn3)cc(C(=O)Nc3cnc(N(C)C)cn3)cc2o1 quantity_kind=pEC50 measurement=5.62

* * *

Biological target: Full-length glucokinase (beta cell isoform) (Homo sapiens)
Construct: Full-length glucokinase (beta cell isoform) was His-tagged at N-terminus; His tag (N); made in house
Assay: Glucokinase biochemical assay (PK/LDH-coupled, NADH depletion at 340 nm): % activation, EC50, % max activation
Settings: 5 mM glucose; GK activation; read-out: EC50
pEC50: −log10 of the molar value.
Known pEC50 of a selection of compounds
QUANTITY_KIND: pEC50

compound="COCC1Cc2c(Oc3ccc(C(=O)N4CCC4)cc3)cc(C(=O)Nc3ccn(C)n3)cc2O1 (stereo not shown) [Example 208]" experimental_system="Full-length glucokinase (beta cell isoform) (Homo sapiens)" result_qualifier== measurement=6.15
compound="CN(C)C(=O)c1ccc(Oc2cc(C(=O)Nc3ccn(C)n3)cc3c2CC(C)(CO)O3)cc1F (stereo not shown) [Example 229]" experimental_system="Full-length glucokinase (beta cell isoform) (Homo sapiens)" result_qualifier== measurement=6.92
compound="Cc1cc2c(Oc3ccc(S(C)(=O)=O)cc3)cc(C(=O)Nc3cnn(C)n3)cc2o1 [Example 267]" experimental_system="Full-length glucokinase (beta cell isoform) (Homo sapiens)" result_qualifier== measurement=5.77
compound="Cn1ccc(NC(=O)c2cc(Oc3ccc(-c4ncon4)cc3)c3c(c2)OC(C)(C)C3)n1 [Example 187]" experimental_system="Full-length glucokinase (beta cell isoform) (Homo sapiens)" result_qualifier=< measurement=5.00
compound="COCC1Cc2c(Oc3ccc(C(=O)N(C)C)cc3)cc(C(=O)Nc3ccn(C)n3)cc2O1 (single isomer, unassigned; (-)) [Example 213]" experimental_system="Full-length glucokinase (beta cell isoform) (Homo sapiens)" result_qualifier== measurement=6.05
compound="Cn1ccc(NC(=O)c2cc(Oc3ccc(C(=O)N4CCC4)cc3F)c3c(c2)OC(C)(C)C3)n1 [Example 32]" experimental_system="Full-length glucokinase (beta cell isoform) (Homo sapiens)" result_qualifier== measurement=6.68
compound="Cc1cc2c(Oc3ccc(S(=O)(=O)N4CCC4)cc3)cc(C(=O)Nc3ccccn3)cc2o1 [Example 296]" experimental_system="Full-length glucokinase (beta cell isoform) (Homo sapiens)" result_qualifier== measurement=6.70

* * *

Known EC50 of a selection of compounds
Target: Full-length glucokinase (beta cell isoform) (Homo sapiens)
Construct: Full-length glucokinase (beta cell isoform) was His-tagged at N-terminus; His tag (N); made in house
Sequence (P35557 1-465): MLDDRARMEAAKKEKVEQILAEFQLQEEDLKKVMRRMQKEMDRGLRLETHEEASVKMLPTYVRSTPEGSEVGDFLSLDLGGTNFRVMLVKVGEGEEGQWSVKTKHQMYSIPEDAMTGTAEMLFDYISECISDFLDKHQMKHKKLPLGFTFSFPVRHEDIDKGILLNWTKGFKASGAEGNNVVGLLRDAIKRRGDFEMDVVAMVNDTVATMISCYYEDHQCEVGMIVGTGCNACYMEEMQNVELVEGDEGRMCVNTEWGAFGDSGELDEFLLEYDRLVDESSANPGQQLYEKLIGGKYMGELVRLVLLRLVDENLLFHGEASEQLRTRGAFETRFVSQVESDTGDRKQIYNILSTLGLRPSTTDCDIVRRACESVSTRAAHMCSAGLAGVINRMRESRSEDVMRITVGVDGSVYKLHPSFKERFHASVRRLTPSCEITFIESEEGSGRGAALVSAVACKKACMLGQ
Experiment: Glucokinase biochemical assay (PK/LDH-coupled, NADH depletion at 340 nm): % activation, EC50, % max activation
Conditions: 5 mM glucose; GK activation; read-out: EC50
QUANTITY_KIND: EC50

smi=Cn1ccc(NC(=O)c2cc3c(c(Oc4ccc(S(C)(=O)=O)cc4)c2F)CC(C)(C)O3)n1 measurement="2100 nM"
smi=Cn1ccc(NC(=O)c2cc(Oc3ccc(S(=O)(=O)C4CC4)cc3)c3c(c2)OC(C)(C)C3)n1 measurement="89 nM"
smi=Cc1cc2c(Oc3ccc(S(=O)(=O)N(C)C)c(F)c3)cc(C(=O)Nc3cnc(N(C)C)cn3)cc2o1 measurement="110 nM"
smi=Cn1ccc(NC(=O)c2cc(Oc3ccc(C(=O)NCCO)c(F)c3)c3c(c2)OC(C)(C)C3)n1 measurement="950 nM"

* * *

Molecular target: Full-length glucokinase (beta cell isoform) (Homo sapiens)
Construct: Full-length glucokinase (beta cell isoform) was His-tagged at N-terminus; His tag (N); made in house
Assay: Glucokinase biochemical assay (PK/LDH-coupled, NADH depletion at 340 nm): % activation, EC50, % max activation
Details: 10 uM compound; 5 mM glucose; % Activation=(Va/Vo−1)×100; read-out: % Activation at 10 uM
QUANTITY_KIND: activation at 10 µM

compound="CN(C)C(=O)c1cc2c(Oc3ccc(S(C)(=O)=O)cc3)cc(C(=O)Nc3ccn(C)n3)cc2o1 [Example 286]" measurement=178%
compound="Cc1ccc(NC(=O)c2cc(Oc3ccc(C(=O)N(C)C)cc3)c3oc(C)cc3c2)nc1 [Example 339]" measurement=-0.7%
compound="CN(C)C(=O)c1ccc(Oc2cc(C(=O)Nc3ccn(C)n3)cc3c2CC(C)(C)O3)cn1 [Example 161]" measurement=191%
compound="Cc1ccc(NC(=O)c2cc(Oc3ccc(S(C)(=O)=O)cc3)c3cc(C)sc3c2)nc1 [Example 359]" measurement=69.9%
compound="CCc1ccc(NC(=O)c2cc(Oc3ccc(S(C)(=O)=O)cc3)c3cc(C)oc3c2)nc1 [Example 265]" measurement=94.2%
compound="COCC1(C)Cc2c(Oc3cc(F)ccc3S(C)(=O)=O)cc(C(=O)Nc3ccn(C)n3)cc2O1 (stereo not shown) [Example 238]" measurement=89.8%
compound="COCCN(C)C(=O)c1ccc(Oc2cc(C(=O)Nc3ccn(C)n3)cc3c2CC(C)(C)O3)cc1F [Example 64]" measurement=172%
compound="CCOCC1Cc2c(OC(C)C)cc(C(=O)Nc3ccn(C)n3)cc2O1 (stereo not shown) [Example 217]" measurement=5.3%
compound="Cn1ccc(NC(=O)c2cc(Oc3ccc(C(=O)N4CC(O)C4)c(F)c3)c3c(c2)OC(C)(C)C3)n1 [Example 55]" measurement=143%
compound="Cn1ncc(NC(=O)c2cc(OC3CN(S(C)(=O)=O)C3)c3c(c2)OC(C)(C)C3)n1 [Example 194]" measurement=146%
compound="Cn1ccc(NC(=O)c2cc(Oc3ccc(C(=O)NCC(F)F)c(F)c3)c3c(c2)OC(C)(C)C3)n1 [Example 76]" measurement=203%
compound="Cc1cc2c(Oc3ccc(S(C)(=O)=O)cc3)cc(C(=O)Nc3ccc(F)cn3)cc2o1 [Example 256]" measurement=89.2%
compound="CN1CCN(C(=O)c2ccc(Oc3cc(C(=O)Nc4ccn(C)n4)cc4c3CC(C)(C)O4)c(F)c2)CC1 [Example 42]" measurement=128%
compound="Cn1ccc(NC(=O)c2cc(Oc3ccc(C(=O)N4CCCC4)c(F)c3)c3c(c2)OC(C)(C)C3)n1 [Example 56]" measurement=107%
compound="COCC1Cc2c(Oc3ccc(S(C)(=O)=O)cc3)cc(C(=O)Nc3ccn(C)n3)cc2O1 (stereo not shown) [Example 201]" measurement=107%
compound="CN(C)S(=O)(=O)c1ccc(Oc2cc(C(=O)Nc3cnn(C)n3)cc3c2CC(C)(C)O3)cc1 [Example 134]" measurement=300%
compound="Cn1ccc(NC(=O)c2cc(Oc3ccc(S(=O)(=O)C4CC4)cc3)c3c(c2)OC(C)(CO)C3)n1 (stereo not shown) [Example 245]" measurement=196%
compound="Cn1ccc(NC(=O)c2cc(Oc3ccc(S(C)(=O)=O)cc3)c3c(c2)OC(C)(CO)C3)n1 (stereo not shown) [Example 227]" measurement=165%
compound="Cc1ccc(NC(=O)c2cc(Oc3ccc(S(C)(=O)=O)c(F)c3)c3c(c2)OC(C)(C)C3)nc1 [Example 116]" measurement=110%
compound="COCC1Cc2c(OC(C)C)cc(C(=O)Nc3ccn(C)n3)cc2O1 (stereo not shown) [Example 216]" measurement=13%
compound="Cn1ccc(NC(=O)c2cc(Oc3ccc(C(=O)NC4CCC4)c(F)c3)c3c(c2)OC(C)(C)C3)n1 [Example 74]" measurement=285%
compound="CO[C@@H]1CCN(C(=O)c2ccc(Oc3cc(C(=O)Nc4ccn(C)n4)cc4c3CC(C)(C)O4)cc2F)C1 [Example 59]" measurement=172%
compound="CN(C)C(=O)c1ccc(Oc2cc(C(=O)Nc3ccn(C)n3)cc3c2CC(C)(C)O3)c(Cl)c1 [Example 107]" measurement=173%
compound="COCc1cc2c(Oc3ccc(S(C)(=O)=O)cc3)cc(C(=O)Nc3cc(OC)ccn3)cc2o1 [Example 314]" measurement=47.3%
compound="Cc1ccc(NC(=O)c2cc(Oc3ccc(S(C)(=O)=O)cc3)c3c(c2)OC(C)(C)C3)nc1 [Example 3]" measurement=145%
compound="Cn1ncc(NC(=O)c2cc(Oc3ccc(S(C)(=O)=O)c(Cl)c3)c3c(c2)OC(C)(C)C3)n1 [Example 118]" measurement=244%
compound="CC(=O)N1CC(Oc2cc(C(=O)Nc3cnn(C)n3)cc3c2CC(C)(C)O3)C1 [Example 195]" measurement=98.9%
compound="Cc1cc2cc(Oc3ccc(S(C)(=O)=O)cc3)cc(C(=O)Nc3ccccn3)c2o1 [Example 5]" measurement=-6.3%
compound="Cc1ccnc(C(C)Oc2cc(C(=O)Nc3ccn(C)n3)cc3c2CC(C)(C)O3)c1 (stereo not shown) [Example 87]" measurement=73.6%
compound="CCn1ncc(NC(=O)c2cc(Oc3ccc(S(C)(=O)=O)cc3)c3c(c2)OC(C)(C)C3)n1 [Example 29]" measurement=284%
compound="CN(C)C(=O)c1ccc(Oc2cc(C(=O)Nc3ccn(C)n3)cc3occc23)cc1F [Example 341]" measurement=59%

Data origin: patent US8119624B2
